Catalogue of molecules with associated IC50
# assayed-target: hERG channel (Homo sapiens, UniProt Q12809)
# Sequence (Q12809 whole entry): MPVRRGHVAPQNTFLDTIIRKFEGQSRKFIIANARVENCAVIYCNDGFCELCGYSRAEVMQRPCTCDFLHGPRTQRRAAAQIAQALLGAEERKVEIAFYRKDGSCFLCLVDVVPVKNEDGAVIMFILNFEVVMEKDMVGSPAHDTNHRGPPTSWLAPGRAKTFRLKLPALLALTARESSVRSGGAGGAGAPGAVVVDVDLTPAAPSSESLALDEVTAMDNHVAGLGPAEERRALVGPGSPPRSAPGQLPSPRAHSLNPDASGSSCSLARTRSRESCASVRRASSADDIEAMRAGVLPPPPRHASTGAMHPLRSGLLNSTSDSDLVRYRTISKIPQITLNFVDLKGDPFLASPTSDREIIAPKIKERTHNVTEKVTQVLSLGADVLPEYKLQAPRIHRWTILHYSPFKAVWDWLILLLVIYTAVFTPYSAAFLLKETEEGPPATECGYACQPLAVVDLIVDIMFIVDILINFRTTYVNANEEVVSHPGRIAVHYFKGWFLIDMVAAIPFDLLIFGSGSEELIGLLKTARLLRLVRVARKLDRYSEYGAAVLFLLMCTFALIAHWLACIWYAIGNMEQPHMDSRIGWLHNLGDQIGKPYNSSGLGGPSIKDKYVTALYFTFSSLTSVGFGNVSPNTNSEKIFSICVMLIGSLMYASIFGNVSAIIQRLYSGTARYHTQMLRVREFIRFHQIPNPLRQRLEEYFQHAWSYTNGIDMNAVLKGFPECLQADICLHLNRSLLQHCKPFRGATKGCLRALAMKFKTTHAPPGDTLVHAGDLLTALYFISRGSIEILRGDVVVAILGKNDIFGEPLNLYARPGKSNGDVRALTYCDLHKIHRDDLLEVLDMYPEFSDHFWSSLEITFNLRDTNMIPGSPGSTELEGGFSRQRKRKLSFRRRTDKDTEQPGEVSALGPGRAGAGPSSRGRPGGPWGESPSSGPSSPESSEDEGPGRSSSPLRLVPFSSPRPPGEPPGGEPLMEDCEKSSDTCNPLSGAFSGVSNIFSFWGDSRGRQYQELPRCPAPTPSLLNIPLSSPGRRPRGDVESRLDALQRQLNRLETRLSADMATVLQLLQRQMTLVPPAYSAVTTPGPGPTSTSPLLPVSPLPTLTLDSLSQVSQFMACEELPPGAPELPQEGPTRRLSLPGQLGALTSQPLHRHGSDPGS
# measurement-protocol: hERG binding study, FluxOR potassium ion channel assay
# study-conditions: hERG CHO cells, thallium flux, 20 min incubation

Reference set, count: 4
N#Cc1ccc2ccc(=O)n(CCN3CCC(NCc4ccc5c(c4)NC(=O)CS5)CC3)c2c1: > 10 µM
N#Cc1ccc2ccc(=O)n(CCN3CCC(NCc4ccc5c(c4)NC(=O)CO5)CC3)c2c1: > 10 µM
O=C1COc2ccc(CNC3CCN(CCn4c(=O)ccc5ccc(F)cc54)CC3)cc2N1: > 10 µM
N#Cc1ccc2ccc(=O)n(CCN3CCC(NCc4ccc5c(c4)OCCO5)CC3)c2c1: > 30 µM

Next molecule, please.
GET /value?item= O=C1CSc2ccc(CNC3CCN(CCn4c(=O)ccc5ccc(F)cc54)CC3)cc2N1 &field=IC50 returns > 10 µM
